Item-by-item account of inhibition at 0.3 µM
Biological target: hKv1.5 (Homo sapiens)
Sequence (P22460 whole entry): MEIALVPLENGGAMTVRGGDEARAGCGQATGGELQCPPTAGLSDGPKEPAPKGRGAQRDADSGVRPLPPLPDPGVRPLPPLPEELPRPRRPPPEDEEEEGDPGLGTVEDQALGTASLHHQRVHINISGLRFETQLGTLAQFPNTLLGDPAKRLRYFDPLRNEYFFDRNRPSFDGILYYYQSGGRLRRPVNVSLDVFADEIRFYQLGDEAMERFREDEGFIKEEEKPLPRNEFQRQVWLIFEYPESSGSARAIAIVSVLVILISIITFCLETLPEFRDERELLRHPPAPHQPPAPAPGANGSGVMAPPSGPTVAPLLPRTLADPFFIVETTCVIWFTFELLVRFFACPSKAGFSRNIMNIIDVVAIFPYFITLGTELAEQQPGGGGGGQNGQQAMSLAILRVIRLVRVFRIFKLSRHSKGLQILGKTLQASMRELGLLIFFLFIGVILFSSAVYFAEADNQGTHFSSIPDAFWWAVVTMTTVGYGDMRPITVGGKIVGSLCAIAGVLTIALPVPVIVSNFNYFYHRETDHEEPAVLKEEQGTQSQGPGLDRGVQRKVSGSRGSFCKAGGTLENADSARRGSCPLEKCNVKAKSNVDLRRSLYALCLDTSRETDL
Assay: hKv1.5 % inhibition at 300 nM (Table 1)
Type: cell-based
Conditions: read-out: hKv1.5 % inh. 300 nM

SMILES: CCN1Cc2ccc(N(Cc3ccc(Cl)cc3)S(=O)(=O)c3cn(C)cn3)cc2C1=O
UNIT ANNOTATION: %
inhibition at 0.3 µM: 27.1
//
SMILES: CCN1Cc2cc(N(Cc3ccc(Cl)cc3)S(=O)(=O)c3ccn(C)n3)ccc2C1=O
UNIT ANNOTATION: %
inhibition at 0.3 µM: 77.3
//
SMILES: O=C1c2cc(N(Cc3ccc(Cl)cc3)S(=O)(=O)c3cccnc3)ccc2CCN1CCO
UNIT ANNOTATION: %
inhibition at 0.3 µM: 76
//
SMILES: CCN1Cc2ccc(N(Cc3ccc(Cl)cc3)S(=O)(=O)c3ccn(C)n3)cc2C1=O
UNIT ANNOTATION: %
inhibition at 0.3 µM: 63.8
//
SMILES: Cn1ccc(S(=O)(=O)N(Cc2ccc(Cl)cc2)c2ccc3c(c2)C(=O)NCC3(C)C)n1
UNIT ANNOTATION: %
inhibition at 0.3 µM: 64.2
//
SMILES: CCN1CC(C)(C)c2ccc(N(Cc3ccc(Cl)cc3)S(=O)(=O)c3cn(C)cn3)cc2C1=O
UNIT ANNOTATION: %
inhibition at 0.3 µM: 70.1
//
SMILES: CCN1CCc2cc(N(Cc3ccccc3)S(=O)(=O)c3cn(C)cn3)ccc2C1=O
UNIT ANNOTATION: %
inhibition at 0.3 µM: 26.5
//
SMILES: Cn1ccc(S(=O)(=O)N(Cc2ccc(Cl)cc2)c2ccc3c(c2)C(=O)NCC3)n1
UNIT ANNOTATION: %
inhibition at 0.3 µM: 42.6
//
SMILES: CCN1CCc2ccc(N(Cc3ccc(Cl)cc3)S(=O)(=O)c3ccn(C)n3)cc2C1=O
UNIT ANNOTATION: %
inhibition at 0.3 µM: 82.4
//
SMILES: CCN1Cc2cc(N(Cc3ccc(Cl)cc3)S(=O)(=O)c3cn(C)cn3)ccc2C1=O
UNIT ANNOTATION: %
inhibition at 0.3 µM: 30.6
//
SMILES: Cn1cnc(S(=O)(=O)N(Cc2ccc(Cl)cc2)c2ccc3c(c2)C(=O)NCC3(C)C)c1
UNIT ANNOTATION: %
inhibition at 0.3 µM: 34.1
//
SMILES: CN1CCc2ccc(N(Cc3ccc(Cl)cc3)S(=O)(=O)c3ccn(C)n3)cc2C1=O
UNIT ANNOTATION: %
inhibition at 0.3 µM: 76.4
//
SMILES: Cn1ccc(S(=O)(=O)N(Cc2ccc(Cl)cc2)c2ccc3c(c2)C(=O)N(CCO)CC3)n1
UNIT ANNOTATION: %
inhibition at 0.3 µM: 47.1
//
SMILES: O=C1NCCc2ccc(N(Cc3ccc(Cl)cc3)S(=O)(=O)c3cccnc3)cc21
UNIT ANNOTATION: %
inhibition at 0.3 µM: 36
//
SMILES: N#Cc1cccc(S(=O)(=O)N(Cc2ccc(Cl)cc2)c2ccc3c(c2)C(=O)NCC3)c1
UNIT ANNOTATION: %
inhibition at 0.3 µM: 91.2
